FYI, the data here is from PubChem BioAssay AID1851.

biological target: Cytochrome P450 3A4 (Homo sapiens) (UniProt P08684); experiment: Cytochrome panel assay with activity outcomes; conditions: recombinant CYP, pro-luciferin dealkylation, luminescence, p450-cyp3a4; series mostly up to 57.1 µM
Sequence (P08684 whole entry, looked up): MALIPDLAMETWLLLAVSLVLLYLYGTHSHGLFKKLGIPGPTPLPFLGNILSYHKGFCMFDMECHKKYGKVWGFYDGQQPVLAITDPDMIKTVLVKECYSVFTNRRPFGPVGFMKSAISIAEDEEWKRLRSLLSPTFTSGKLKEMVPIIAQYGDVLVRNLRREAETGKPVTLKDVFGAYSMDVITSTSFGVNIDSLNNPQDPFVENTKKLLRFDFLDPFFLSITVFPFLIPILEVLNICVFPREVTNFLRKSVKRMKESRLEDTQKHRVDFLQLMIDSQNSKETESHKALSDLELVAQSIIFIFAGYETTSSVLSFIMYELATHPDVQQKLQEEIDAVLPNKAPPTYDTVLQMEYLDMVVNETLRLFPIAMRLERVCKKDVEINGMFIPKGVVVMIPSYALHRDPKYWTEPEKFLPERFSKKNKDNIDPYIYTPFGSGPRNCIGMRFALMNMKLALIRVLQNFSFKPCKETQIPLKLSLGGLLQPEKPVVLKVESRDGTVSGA
Screen size: about 16,000 compounds; about 5,100 (32%) were called active. About 25% were inconclusive and are not listed. The call rests on the fitted dose curve; in most records, active means well fitted curve in the direction sought with a large enough effect; inconclusive means small, poorly fitted or top-dose-only effect, or effect the other way; inactive means no such curve, though single readings can be large or run the other way. The list shows a part of the results.
Possible outcomes: active, inactive

>  <COMPOUND>
CC1CN(C(=O)COc2ncnc3ccccc23)CC(C)O1 (stereo unspecified)

>  <GROUP>
inactive

$$$$
>  <COMPOUND>
CNc1ncnc2ccc(-c3ccccc3OC)cc12

>  <GROUP>
active

$$$$
>  <COMPOUND>
Clc1cccc(Nc2ncnc3ccc(Br)cc23)c1

>  <GROUP>
active

$$$$
>  <COMPOUND>
COc1ccc(Nc2ncnc3sc(-c4ccccc4)cc23)cc1

>  <GROUP>
active

$$$$
>  <COMPOUND>
COc1ccc(/C=N/n2c(-c3cccs3)n[nH]c2=S)cc1

>  <GROUP>
active

$$$$
>  <COMPOUND>
COc1cccc(-c2ccc3ncnc(NC4CC4)c3c2)c1

>  <GROUP>
active

$$$$

###

target: Cytochrome P450 3A4 (Homo sapiens); assay: Cytochrome panel assay with activity outcomes; conditions: recombinant CYP, pro-luciferin dealkylation, luminescence, p450-cyp3a4; series mostly up to 57.1 µM
The campaign covered roughly 16,000 compounds. About 5,100 (32%) were called active. About 25% were inconclusive and are not listed. The call rests on the fitted dose curve; in most records, active means well fitted curve in the direction sought with a large enough effect; inconclusive means small, poorly fitted or top-dose-only effect, or effect the other way; inactive means no such curve, though single readings can be large or run the other way. This is one part of the list.
Outcome codes: 1 = active, -1 = inactive

>  <COMPOUND>
Cc1ccc(-n2[nH]c(=O)c3cccnc32)cc1

>  <GROUP>
-1

$$$$
>  <COMPOUND>
Cc1cc(Oc2ccc(-c3ccccc3)cc2)nc(N2CCOCC2)n1

>  <GROUP>
-1

$$$$
>  <COMPOUND>
COc1ccc(NC(=O)NCCCN2CCCCC2C)cc1 (stereo not drawn)

>  <GROUP>
-1

$$$$
>  <COMPOUND>
CC(C)(C)NC(=O)C(Cc1ccccc1)NS(=O)(=O)c1ccc2c(c1)CCC(=O)N2 (stereo not drawn)

>  <GROUP>
1

$$$$
>  <COMPOUND>
CCOc1ccc(C(C)=O)cc1N1C(=O)C2C3C=CC(C3=C(C)C)C2C1=O (stereo not drawn)

>  <GROUP>
1

$$$$
>  <COMPOUND>
Cc1noc(C)c1-c1nc(N2CCOCC2)c2ccccc2n1

>  <GROUP>
1

$$$$
>  <COMPOUND>
CCOc1ccc(C(C)=O)cc1N1C(=O)C2C(C1=O)C1C=CC2C12CC2 (stereo not drawn)

>  <GROUP>
-1

$$$$
>  <COMPOUND>
O=C(O)Cc1ccc(NC(=O)C2CCCCC2C(=O)O)cc1 (stereo not drawn)

>  <GROUP>
-1

$$$$
>  <COMPOUND>
Cc1c(C=NCCOCc2ccccc2)cnn1C

>  <GROUP>
-1

$$$$
>  <COMPOUND>
O=S(=O)(c1ccc(F)cc1)N1CC2CCCN2c2ccc(C(F)(F)F)cc21 (stereo not drawn)

>  <GROUP>
1

$$$$
>  <COMPOUND>
Clc1ccccc1-c1nc(N2CCNCC2)c2ccccc2n1

>  <GROUP>
1

$$$$
>  <COMPOUND>
CCc1cccc(C)c1NC(=O)CSc1nc2ccc(N3C(=O)c4ccccc4C3=O)cc2s1

>  <GROUP>
1

$$$$
>  <COMPOUND>
Cc1sc2ccccc2[n+]1CCC(C)S(=O)(=O)[O-] (stereo not drawn)

>  <GROUP>
-1

$$$$
>  <COMPOUND>
Cc1ccccc1-c1nc(N2CCOCC2)c2ccccc2n1

>  <GROUP>
1

$$$$
>  <COMPOUND>
O=c1nc(N2CCOCC2)ccn1-c1nc(-c2ccccc2)oc1-c1ccccc1

>  <GROUP>
-1

$$$$
>  <COMPOUND>
COc1ccc(CCNC(=O)CCN2C(=O)C(C)Oc3ccc(C)cc32)cc1OC (stereo not drawn)

>  <GROUP>
1

$$$$
>  <COMPOUND>
Cc1noc(C)c1-c1nc(N2CCN(C)CC2)c2ccccc2n1

>  <GROUP>
-1

$$$$
>  <COMPOUND>
COc1ccc(CCNC(=O)CCN2C(=O)COc3ccc(C)cc32)cc1OC

>  <GROUP>
1

$$$$
>  <COMPOUND>
CC12c3ccccc3C(c3ccccc31)C1C(=O)N(Cc3cccnc3)C(=O)C12 (stereo not drawn)

>  <GROUP>
1

$$$$
>  <COMPOUND>
CCS(=O)(=O)N1CCCC(C(=O)NCCCOC(C)C)C1 (stereo not drawn)

>  <GROUP>
-1

$$$$
>  <COMPOUND>
O=C(OCc1cccc(F)c1)c1ccc2c(c1)-c1ccccc1C2=O

>  <GROUP>
-1

$$$$
>  <COMPOUND>
O=C(OCc1nnc(-c2ccccc2)o1)c1ccc2c(c1)OCCO2

>  <GROUP>
1

$$$$
>  <COMPOUND>
Cc1ccc(S(=O)(=O)N2CCCC(C(=O)NCCCN3CCCCC3C)C2)cc1 (stereo not drawn)

>  <GROUP>
1

$$$$

###

biological target: Cytochrome P450 3A4 (Homo sapiens) (UniProt P08684); experiment: Cytochrome panel assay with activity outcomes; conditions: recombinant CYP, pro-luciferin dealkylation, luminescence, p450-cyp3a4; series mostly up to 57.1 µM
Among all 16,000 compounds or so, about 5,100 (32%) were called active. Inconclusive results (about 25%) are left out. Some of the results follow.
READOUT KIND: AC50

>  <MOLECULE>
Cc1nc2ccccn2c1/C(O)=C1\C(=O)C(=O)N(CCCn2ccnc2)C1c1ccncc1 (stereo not given)

>  <MEASURED ON>
Cytochrome P450 3A4 (Homo sapiens) (UniProt P08684)

>  <OBSERVED MEASUREMENT>
11.2 µM (active)

$$$$
>  <MOLECULE>
O=C1c2ccccc2C(=O)N1CC1CCCO1 (stereo not given)

>  <MEASURED ON>
Cytochrome P450 3A4 (Homo sapiens) (UniProt P08684)

>  <OBSERVED MEASUREMENT>
inactive

$$$$
>  <MOLECULE>
COCCCNC(=O)c1c(N)n(/N=C/c2ccccn2)c2nc3ccccc3nc12

>  <MEASURED ON>
Cytochrome P450 3A4 (Homo sapiens) (UniProt P08684)

>  <OBSERVED MEASUREMENT>
4.47 µM (active)

$$$$
>  <MOLECULE>
NC(=O)/C(=C\c1ccncc1)c1cccc2ccccc12

>  <MEASURED ON>
Cytochrome P450 3A4 (Homo sapiens) (UniProt P08684)

>  <OBSERVED MEASUREMENT>
3.16 µM (active)

$$$$
>  <MOLECULE>
Cc1nc2c(C)cccn2c1/C(O)=C1\C(=O)C(=O)N(CCN2CCOCC2)C1c1cccs1 (stereo not given)

>  <MEASURED ON>
Cytochrome P450 3A4 (Homo sapiens) (UniProt P08684)

>  <OBSERVED MEASUREMENT>
inactive

$$$$
>  <MOLECULE>
Nc1ncc(-c2ccccc2)n1CC1CCCO1 (stereo not given)

>  <MEASURED ON>
Cytochrome P450 3A4 (Homo sapiens) (UniProt P08684)

>  <OBSERVED MEASUREMENT>
7.08 µM (active)

$$$$
>  <MOLECULE>
Cc1c(NC(=O)CSc2nnc3c4ccccc4n(CCc4ccccc4)c3n2)c(=O)n(-c2ccccc2)n1C

>  <MEASURED ON>
Cytochrome P450 3A4 (Homo sapiens) (UniProt P08684)

>  <OBSERVED MEASUREMENT>
10 µM (active)

$$$$
>  <MOLECULE>
CCOc1ncnc2c1oc1nc(CC(C)C)c3c(c12)CC(C)(C)OC3

>  <MEASURED ON>
Cytochrome P450 3A4 (Homo sapiens) (UniProt P08684)

>  <OBSERVED MEASUREMENT>
inactive

$$$$
>  <MOLECULE>
CCOc1ccccc1NC(=O)CSc1nnc(-c2cnccn2)n1C

>  <MEASURED ON>
Cytochrome P450 3A4 (Homo sapiens) (UniProt P08684)

>  <OBSERVED MEASUREMENT>
8.91 µM (active)

$$$$
>  <MOLECULE>
C=CCn1c(SCC(=O)Nc2c(C)n(C)n(-c3ccccc3)c2=O)nc2sc(C)c(-c3ccccc3)c2c1=O

>  <MEASURED ON>
Cytochrome P450 3A4 (Homo sapiens) (UniProt P08684)

>  <OBSERVED MEASUREMENT>
2.51 µM (active)

$$$$
